Exercise: state measured PBM binding z-score for each of the sequences provided.
# Tested on: RARb:RXRa (NR concentration 270 nM, RXRa partner concentration 90 nM)
# ASSAY_REMARKS: PBM binding z-score (relative to random genomic background probes); higher = stronger binding; sequences stand for … in GC…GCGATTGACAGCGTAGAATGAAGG
Give bare numbers.

Past entries and their recorded results:
>>> print(df.to_string())
                      sequence_record  assay_result
0  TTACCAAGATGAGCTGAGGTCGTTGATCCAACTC         0.279
1  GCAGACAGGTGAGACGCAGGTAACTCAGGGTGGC         0.422
2  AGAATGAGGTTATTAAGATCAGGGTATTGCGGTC          1.32
3  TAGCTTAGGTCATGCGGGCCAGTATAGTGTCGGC          3.87
4  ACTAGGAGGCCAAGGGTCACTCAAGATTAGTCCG          3.64
5  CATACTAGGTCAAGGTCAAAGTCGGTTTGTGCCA          4.96
6  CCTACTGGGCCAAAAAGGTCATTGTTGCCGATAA          3.56
7  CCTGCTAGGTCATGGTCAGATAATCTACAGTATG          3.92

I have 4 sequences here; please give me PBM binding z-score for each one.
1. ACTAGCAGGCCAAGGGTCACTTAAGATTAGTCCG
2. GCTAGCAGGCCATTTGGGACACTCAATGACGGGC
3. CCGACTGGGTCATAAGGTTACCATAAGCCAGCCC
4. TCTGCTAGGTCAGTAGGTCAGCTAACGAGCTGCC

Ans:
1: 3.39; 2: -0.00778; 3: 3.38; 4: 3.79

====

# Test system: PPARa:RXRa (NR concentration 270 nM, RXRa partner concentration 90 nM)
# ASSAY_REMARKS: PBM binding z-score (relative to random genomic background probes); higher = stronger binding; sequences stand for … in GC…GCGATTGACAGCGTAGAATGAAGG
Exercise: state measured PBM binding z-score for each of the sequences provided.
Numbers only.

                      sequence_record                               measured_on    measurement_label  assay_result
0  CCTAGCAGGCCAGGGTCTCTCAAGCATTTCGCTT  PPARa:RXRa (NR concentration 270 nM, RXRa partner concentration 90 nM)  PBM binding z-score         -0.63
1  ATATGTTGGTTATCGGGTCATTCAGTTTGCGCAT  PPARa:RXRa (NR concentration 270 nM, RXRa partner concentration 90 nM)  PBM binding z-score          2.86
2  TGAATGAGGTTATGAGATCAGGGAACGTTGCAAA  PPARa:RXRa (NR concentration 270 nM, RXRa partner concentration 90 nM)  PBM binding z-score          3.11
3  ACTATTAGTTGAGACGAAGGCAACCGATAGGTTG  PPARa:RXRa (NR concentration 270 nM, RXRa partner concentration 90 nM)  PBM binding z-score        -0.644
4  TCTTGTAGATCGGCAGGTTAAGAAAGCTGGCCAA  PPARa:RXRa (NR concentration 270 nM, RXRa partner concentration 90 nM)  PBM binding z-score         0.736

I have 5 sequences here; please give me PBM binding z-score for each one.
1. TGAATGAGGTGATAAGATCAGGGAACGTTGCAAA
2. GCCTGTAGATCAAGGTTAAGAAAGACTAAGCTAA
3. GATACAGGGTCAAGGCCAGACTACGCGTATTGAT
4. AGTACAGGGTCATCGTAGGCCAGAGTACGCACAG
5. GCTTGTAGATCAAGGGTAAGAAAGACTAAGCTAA

Ans:
1.08
1.28
5.69
5.87
1.24

I have 2 sequences here; please give me PBM binding z-score for each one.
1. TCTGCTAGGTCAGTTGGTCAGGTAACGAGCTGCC
2. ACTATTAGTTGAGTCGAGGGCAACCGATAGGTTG

Ans:
1.48
0.703
